test: Pharmacokinetic comparison of ADX-102 (reproxalap) and compound I-1 in rats; format: in vivo, Sprague-Dawley rats; details: SD Rat; intravenous data using captisol formulation
measured-endpoint: Vss (L/kg)
Only the number, expressed in L/kg, is required.

Fill in reported Vss for this entry: CC(C)(O)c1nc2ccc(Cl)cc2cc1N [ADX-102]
1.36

###

test: Pharmacokinetics of compound I-1 in the dog by intravenous, oral gavage and oral capsule routes; assay type: in vivo, beagle dogs; conditions: male, beagle, dog, plasma, po, 10 mg/kg, Oral Gavage 0.5% Methylcellulose 10 mg/kg; Subj1
measured-endpoint: half-life (h)
Give the quantity in h, number only.

// fetch half-life given entry `CC(C)(O)c1nc2ccccc2cc1N`
2.85

###

assay: Pharmacokinetics of compound I-1 in the dog by intravenous, oral gavage and oral capsule routes; format: in vivo, beagle dogs; settings: male, beagle, dog, plasma, iv, 3 mg/kg, Intravenous - 3 mg/kg; Subj1
measured-endpoint: AUC(0-inf)

Answer with the recorded AUC(0-inf) for the compound listed here: CC(C)(O)c1nc2ccccc2cc1N [I-1]
4080 ng·h/mL

###

test: Phase 1 clinical trial, single ascending dose (SAD) pharmacokinetics; format: in vivo, human; conditions: human, in vivo, po, 1200 mg, healthy volunteers; oral single dose 1200 mg
measured-endpoint: AUC(0-inf)

Please give measured AUC(0-inf) of the following entry: `CC(C)(O)c1nc2ccccc2cc1N`
~14500 ng·h/mL

###

assay: Pharmacokinetics of compound I-1 in the dog by intravenous, oral gavage and oral capsule routes; assay type: in vivo, beagle dogs; conditions: male, beagle, dog, plasma, iv, 3 mg/kg, Intravenous - 3 mg/kg; Subj2
measured-endpoint: AUC(0-inf) (ng·h/mL)
Note: unit ng·h/mL is implicit; provide only the numeric part.

Please give the documented AUC(0-inf) of CC(C)(O)c1nc2ccccc2cc1N [I-1]
4560

###

assay: Pharmacokinetic comparison of ADX-102 (reproxalap) and compound I-1 in rats; type: in vivo, Sprague-Dawley rats; details: Sprague-Dawley, in vivo; SD Rat; oral gavage 50 mg/kg; 0.5% MC
measured-endpoint: Tmax
Report as: number unit

Note down Tmax recorded for `CC(C)(O)c1nc2ccccc2cc1N`
19.2 min

###

experiment: Pharmacokinetics of compound I-1 in the dog by intravenous, oral gavage and oral capsule routes; format: in vivo, beagle dogs; conditions: male, beagle, dog, plasma, iv, 3 mg/kg, Group 1: IV 3 mg/kg; 4 h; Subject 3; read-out: Concentration at time point
measured-endpoint: concentration at 4 h (ng/mL)
Field format: number, assumed ng/mL, no unit text.

State, in one line, measured concentration at 4 h of `CC(C)(O)c1nc2ccccc2cc1N`
203

###

test: Pharmacokinetics of compound I-1 in the dog by intravenous, oral gavage and oral capsule routes; assay type: in vivo, beagle dogs; details: male, beagle, dog, plasma, po, 10 mg/kg, Oral Gavage 0.5% Methylcellulose 10 mg/kg; Subj2
measured-endpoint: Tmax (min)
Just the number please, in min, no unit attached.

Look up and report measured Tmax for this entry: `CC(C)(O)c1nc2ccccc2cc1N`
27.6

###

experiment: Pharmacokinetics of compound I-1 in the dog by intravenous, oral gavage and oral capsule routes; assay type: in vivo, beagle dogs; conditions: male, beagle, dog, plasma, oral, 7 mg/kg, Group 3: PO Capsule 7 mg/kg; 2 h; Average; read-out: Concentration at time point
measured-endpoint: concentration at 2 h (ng/mL)
Use ng/mL as the unit, but write only the number.

Determine from records and report concentration at 2 h for `CC(C)(O)c1nc2ccccc2cc1N`
2350

###

test: Pharmacokinetics of compound I-1 in the dog by intravenous, oral gavage and oral capsule routes; type: in vivo, beagle dogs; conditions: male, beagle, dog, plasma, oral, 7 mg/kg, Group 3: PO Capsule 7 mg/kg; 1 h; Average; read-out: Concentration at time point
measured-endpoint: concentration at 1 h (ng/mL)
Give just the number in ng/mL; leave the unit off.

Using known records, supply concentration at 1 h for CC(C)(O)c1nc2ccccc2cc1N [I-1]
137

###

assay: Pharmacokinetics of compound I-1 in the dog by intravenous, oral gavage and oral capsule routes; format: in vivo, beagle dogs; conditions: male, beagle, dog, plasma, iv, 3 mg/kg, Intravenous - 3 mg/kg; Subj1
measured-endpoint: C0 (ng/mL)
Provide only the numeric value, understood in ng/mL.

Consider the compound CC(C)(O)c1nc2ccccc2cc1N [I-1] and give its recorded C0.
5600

###

assay: Pharmacokinetics of compound I-1 in the dog by intravenous, oral gavage and oral capsule routes; type: in vivo, beagle dogs; conditions: male, beagle, dog, plasma, po, 10 mg/kg, Oral Gavage 0.5% Methylcellulose 10 mg/kg; Subj2
measured-endpoint: AUC(0-t) (ng·h/mL)
Please state the figure in ng·h/mL; there is no need to write the unit.

State its AUC(0-t) for this compound: `CC(C)(O)c1nc2ccccc2cc1N`
9910

###

assay: Pharmacokinetics of compound I-1 in the dog by intravenous, oral gavage and oral capsule routes; assay type: in vivo, beagle dogs; conditions: male, beagle, dog, plasma, iv, 3 mg/kg, Group 1: IV 3 mg/kg; 0.083 h; Subject 2; read-out: Concentration at time point
measured-endpoint: concentration at 0.083 h (ng/mL)
Report the figure in ng/mL without appending any unit label.

Indicate the recorded concentration at 0.083 h value for this compound: CC(C)(O)c1nc2ccccc2cc1N [I-1]
4900

###

assay: Pharmacokinetics of compound I-1 in the dog by intravenous, oral gavage and oral capsule routes; type: in vivo, beagle dogs; conditions: male, beagle, dog, plasma, iv, 3 mg/kg, Intravenous - 3 mg/kg; Subj1
measured-endpoint: half-life (h)
Field format: number, assumed h, no unit text.

Query half-life for CC(C)(O)c1nc2ccccc2cc1N [I-1]
2.2

###

experiment: Pharmacokinetics of compound I-1 in the dog by intravenous, oral gavage and oral capsule routes; assay type: in vivo, beagle dogs; settings: male, beagle, dog, plasma, po, 10 mg/kg, Oral Gavage 0.5% Methylcellulose 10 mg/kg; Average
measured-endpoint: half-life (h)
Quick reminder: number only, in h, skip the unit.

State its half-life for this compound: CC(C)(O)c1nc2ccccc2cc1N [I-1]
3.02

###

test: Pharmacokinetics of compound I-1 in the dog by intravenous, oral gavage and oral capsule routes; format: in vivo, beagle dogs; conditions: male, beagle, dog, plasma, oral, 7 mg/kg, Group 3: PO Capsule 7 mg/kg; 0.5 h; Subject 1; read-out: Concentration at time point
measured-endpoint: concentration at 0.5 h (ng/mL)
All answers are understood in ng/mL, so give the number only.

Find the measured concentration at 0.5 h of `CC(C)(O)c1nc2ccccc2cc1N` and report it.
1.1

###

Assay: Pharmacokinetics of compound I-1 in the dog by intravenous, oral gavage and oral capsule routes
Format: in vivo, beagle dogs
Conditions: male, beagle, dog, plasma, iv, 3 mg/kg, Intravenous - 3 mg/kg; Average
Experimental: A pharmacokinetic study was conducted to compare the bioavailability of capsule and suspension oral formulations vs. an intravenous formulations. The standard curve was prepared from 1 to 2,000 ng/mL. QC samples were prepared at 30, 30, and 750 ng/mL. […] The resulting supernatants were analyzed by LCMS. […] The I-1 100 mg capsules are manufactured as a non-sterile spray dried, granulated powder blend. […] The quantitative composition of the I-1 100 mg capsule is presented above in Table B. […]
measured-endpoint: AUC(0-inf) (ng·h/mL)
The response must be a number in ng·h/mL with no trailing unit.

Specify AUC(0-inf) for `CC(C)(O)c1nc2ccccc2cc1N` and stop.
4140

###

assay: Pharmacokinetics of compound I-1 in the dog by intravenous, oral gavage and oral capsule routes; type: in vivo, beagle dogs; settings: male, beagle, dog, plasma, po, 7.2 mg/kg, 100 mg Capsule, average dose 7.2 mg/kg; Subj3
measured-endpoint: half-life (h)
Give the number; h is assumed, so skip it.

Read off the recorded half-life for CC(C)(O)c1nc2ccccc2cc1N [I-1]
1.1

###

assay: Phase 1 clinical trial, single ascending dose (SAD) pharmacokinetics; assay type: in vivo, human; conditions: human, in vivo, po, 400 mg, healthy volunteers; oral single dose 400 mg
measured-endpoint: Cmax

For the compound `CC(C)(O)c1nc2ccccc2cc1N` , give its reported Cmax.
~869 ng/mL

###

experiment: Pharmacokinetics of compound I-1 in the dog by intravenous, oral gavage and oral capsule routes; assay type: in vivo, beagle dogs; conditions: male, beagle, dog, plasma, oral, 7 mg/kg, Group 3: PO Capsule 7 mg/kg; 1 h; Subject 3; read-out: Concentration at time point
measured-endpoint: concentration at 1 h (ng/mL)
Give the value in ng/mL but do not write ng/mL after it.

For the compound `CC(C)(O)c1nc2ccccc2cc1N` , give its measured concentration at 1 h value.
134

###

assay: Pharmacokinetics of compound I-1 in the dog by intravenous, oral gavage and oral capsule routes; format: in vivo, beagle dogs; settings: male, beagle, dog, plasma, po, 10 mg/kg, Oral Gavage 0.5% Methylcellulose 10 mg/kg; Subj3
measured-endpoint: half-life (h)
State just the number; it will be interpreted in h.

Specify reported half-life for the compound shown: CC(C)(O)c1nc2ccccc2cc1N [I-1]
4.08
